This collection of values is drawn from PubChem BioAssay (NCI).

assay: NCI Yeast Anticancer Drug Screen. Data for the rad50 strain (AID 155);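 note: 0% = growth of vehicle-only cultures of the same strain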; conditions: S. cerevisiae rad50 strain growth inhibition; at 50.0 µM
Compounds without any hit were thinned out: in the full panel of roughly 79,000, 15% have a hit. Active and inactive are the calls of the source. Cut-off read from the data, not from the text of the source: active = growth inhibition above about 70%; inactive = the rest.
Write down the outcome that applies. Available outcomes: 1.0 (active), 0.0 (inactive)

Past entries and their recorded results:
What is the recorded call for this molecule in the test? `Cc1ccc(-c2c(C#N)c(-c3ccccc3)n(NS(=O)(=O)c3ccc(C)cc3)c(=O)c2C#N)cc1`
1.0

What is the recorded call for this molecule in the test? O=C(c1ccccc1)C1OC1c1ccccc1Cl (stereo not given)
0.0

What is the recorded call for this molecule in the test? `COc1ccc2c(c1)CCC1=C2C=C[P+]1(C)C`
1.0

What is the recorded call for this molecule in the test? `Nc1ccc(S(=O)(=O)Nc2nc3ccccc3nc2N2CCCCCC2)cc1`
0.0

What is the recorded call for this molecule in the test? `O=[N+]([O-])c1ccc(NCc2ccccc2)c([N+](=O)[O-])c1`
0.0

***
What is the recorded call for this molecule in the test? CC(=O)OC12CC(C(F)(F)F)(C(F)(F)F)OC1(OC(C)=O)CC(C(F)(F)F)(C(F)(F)F)O2 (stereo not given)
0.0

What is the recorded call for this molecule in the test? `Cc1ccc2nc(-[n+]3cc4ccccc4cc3C)ccc2c1`
1.0

What is the recorded call for this molecule in the test? CC(C)(C)N/N=C(\C(=O)NC1=C(Cl)C(=O)c2ccccc2C1=O)C1C=CCS1(=O)=O (stereo not given)
1.0

What is the recorded call for this molecule in the test? `O/N=C/c1cc(Cl)cc(Cl)c1O`
1.0

What is the recorded call for this molecule in the test? `CC(C)c1ccc(S(=O)(=O)c2ccc([N+](=O)[O-])cc2[N+](=O)[O-])cc1`
1.0

What is the recorded call for this molecule in the test? `CCN(CC)CC(C)(C)C(=O)/C=C/c1ccc(Cl)c(Cl)c1`
1.0

----------
test: NCI Yeast Anticancer Drug Screen. Data for the sgs1 mgt1 strain (AID 161);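 note: 0% = growth of cultures given vehicle only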; settings: S. cerevisiae sgs1 mgt1 strain, at 5.0 µM (retest, dose inferred, filed as 0.5), stronger effect = higher value
Compounds without any hit were thinned out: in the full panel of roughly 79,000, 15% have a hit.
Below, each entry is listed with its recorded growth inhibition.
State just the number; it will be interpreted in %.

A selection of reference data follows.
Please give the measured growth inhibition for this compound: `CN(C)CC(CN(C)C)C(=O)c1ccc(Oc2ccc(Cl)c(Cl)c2)cc1`
29

Please give the measured growth inhibition for this compound: `N#Cc1c(SCc2ccc(Cl)cc2)nsc1Nc1ccc(Cl)cc1`
91

Please give the measured growth inhibition for this compound: CCCC(O)C[N+](=O)[O-] (stereo not drawn)
-2

Please give the measured growth inhibition for this compound: `CCCCCCCCC1CCNCC1`
26

Please give the measured growth inhibition for this compound: O=C1Sc2sc(=S)sc2SC1c1ccccc1 (stereo not drawn)
5

Please give the measured growth inhibition for this compound: O=[N+]([O-])C1C(c2ccccc2)CC=CC1N1CCCC1 (stereo not drawn)
17

***
Please give the measured growth inhibition for this compound: `CSC(=S)NN=C1CCCCC1`
49

Please give the measured growth inhibition for this compound: N=C(N)SC1c2ccccc2-c2cc([N+](=O)[O-])ccc21 (stereo not drawn)
22

Please give the measured growth inhibition for this compound: O=C1OC(=O)C2C3CCC(C3=C3CCCCC3)C12 (stereo not drawn)
-1

----------
test: NCI Yeast Anticancer Drug Screen. Data for the cln2 rad14 strain (AID 165);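 note: 0% = growth equal to vehicle treated cultures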; conditions: S. cerevisiae cln2 rad14 strain, at 5.0 µM (retest, dose inferred, filed as 0.5)
The panel holds about 79,000 compounds, 15% with a hit somewhere; the sample as a whole holds those more often. Activity calls are given as the source filed them. Rule as the data show it: active = growth inhibition above about 70%; inactive = the rest.
Write down the outcome that applies. Available outcomes: YES for active, NO for inactive

Past entries and their recorded results:
What is the recorded call for this molecule in the test? `C=C(c1ccccc1)[N+](=O)[O-]`
NO

What is the recorded call for this molecule in the test? `O=C1OC2(Cc3ccccc31)c1ccccc1-c1ccccc12`
NO

What is the recorded call for this molecule in the test? COC(=O)[C@@H]1c2cc3c(c(O)c2[C@@H](OC2OC(C)C(OC)C(C)(OC)C2OC)C[C@]1(C)O)C(=O)c1c(O)cc2c(c1C3=O)O[C@H]1O[C@]2(C)[C@H](O)[C@@H](N(C)C)[C@@H]1O (stereo partly drawn)
NO

What is the recorded call for this molecule in the test? CC(C(O)c1ccccc1)[N+](=O)[O-] (stereo not drawn)
NO

What is the recorded call for this molecule in the test? `O=C(Nc1ccc(F)cc1)ON=C1CCCCC1`
NO

***
What is the recorded call for this molecule in the test? `CCCNC(=O)OCc1ccc(NCCN(CC)CC)c2c(=O)c3ccccc3sc12`
NO

What is the recorded call for this molecule in the test? `Cc1nc2c(=O)[nH]c3ccc(Cl)cc3c2o1`
NO

What is the recorded call for this molecule in the test? `CN(C)c1ccc(C(O)(Cc2cccc(C#N)c2)c2ccc(N(C)C)cc2)cc1`
NO

What is the recorded call for this molecule in the test? CCCCCCCCCCCCCCCCC1CCc2ccccc21 (stereo not drawn)
NO

What is the recorded call for this molecule in the test? `Cn1cnc([N+](=O)[O-])c1Sc1nc2cccnc2s1`
NO

What is the recorded call for this molecule in the test? `COC1=CC(=O)c2c(O)c3c(c(O)c2C1=O)C[C@](C)(O)C[C@@H]3O`
NO

What is the recorded call for this molecule in the test? `O=C(/C=C/C(=O)c1ccc(O)cc1)c1ccccc1`
NO

What is the recorded call for this molecule in the test? `CCOC(=O)N1CCN(c2cc(C)nc3cc(OC)ccc23)CC1`
NO

What is the recorded call for this molecule in the test? `O=C(O)C(c1ccc(Cl)cc1)c1ccc(Cl)cc1`
NO

What is the recorded call for this molecule in the test? `C=CC(=O)NC(=O)Nc1ccc(Cl)cc1`
NO

What is the recorded call for this molecule in the test? COC1/C=C/OC2(C)Oc3c(C)c(OC(C)=O)c4c(c3C2=O)C(=O)C=C(NC(=O)/C(C)=C\C=C\C(C)C(O)C(C)C(O)C(C)C(OC(C)=O)C1C)C4=O (stereo not drawn)
NO

----------
experiment: NCI Yeast Anticancer Drug Screen. Data for the cln2 rad14 strain (AID 165);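 note: 0% = growth equal to vehicle treated cultures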; conditions: S. cerevisiae cln2 rad14 strain, at 5.0 µM (retest, dose inferred, filed as 0.5), stronger effect = higher value
The panel holds about 79,000 compounds, 15% with a hit somewhere; the sample as a whole holds those more often.
readout_name: growth inhibition (%)
State just the number; it will be interpreted in %.

A selection of reference data follows.
Please give the measured growth inhibition for this compound: `CCN(CC)CC(C)(C)C(=O)/C=C/c1ccc(Cl)c(Cl)c1`
4

Please give the measured growth inhibition for this compound: `O=C(Nc1ccc(C(=O)c2ccccc2)cc1)Nc1ccc(Cl)c(Cl)c1`
30

***
Please give the measured growth inhibition for this compound: `CC(=O)N(c1ccccc1)c1nc2ccccc2s1`
-2

----------
assay: NCI Yeast Anticancer Drug Screen. Data for the sgs1 mgt1 strain (AID 161);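 note: 0% = growth of cultures given vehicle only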; conditions: S. cerevisiae sgs1 mgt1 strain, at 50.0 µM (retest, dose inferred, filed as 5.0), stronger effect = higher value
This is part of a sample that, as a whole, favours compounds with a hit. Of some 79,000 tested, about 15% had one in any assay.
readout_name: growth inhibition (%)
State just the number; it will be interpreted in %.

Please give the measured growth inhibition for this compound: `CCCCCCCCCC(=O)NN=C(C)C`
75

Please give the measured growth inhibition for this compound: `O=C(O/N=C1/CCC/C1=C\c1ccccc1)c1ccccc1`
99

Please give the measured growth inhibition for this compound: `COc1ccc(-c2cscc2N)cc1`
38

----------
test: NCI Yeast Anticancer Drug Screen. Data for the mlh1 rad18 strain (AID 175); details: S. cerevisiae mlh1 rad18 strain growth inhibition; at 50.0 µM (retest, dose inferred, filed as 5.0); stronger effect = higher value
Compounds without any hit were thinned out: in the full panel of roughly 79,000, 15% have a hit.
readout_name: growth inhibition (%)
State just the number; it will be interpreted in %.

Please give the measured growth inhibition for this molecule: `CN(C)c1nc(NNS(=O)(=O)c2ccc(N)cc2)nc(N(C)C)n1`
0

Please give the measured growth inhibition for this molecule: `Nc1nc2nc(I)[nH]c2c(=O)[nH]1`
-2

Please give the measured growth inhibition for this molecule: `O=C(Cc1ccc2c(c1)OCO2)c1ccc(O)cc1O`
88

Please give the measured growth inhibition for this molecule: `CNC(=O)N/N=C/c1ccc([N+](=O)[O-])o1`
48

Please give the measured growth inhibition for this molecule: `NC(=O)/C=C/C(=O)c1c(Cl)cccc1Cl`
100

Please give the measured growth inhibition for this molecule: COc1ccc(/C=C2\CCC(CN(C)C)C2=O)cc1 (stereo not given)
98

***
Please give the measured growth inhibition for this molecule: `COC/C=N/Nc1ccc([N+](=O)[O-])cc1`
98

----------
assay: NCI Yeast Anticancer Drug Screen. Data for the mlh1 rad18 strain (AID 175); conditions: S. cerevisiae mlh1 rad18 strain growth inhibition; at 50.0 µM
About 79,000 compounds went through this panel and 15% of them were active in at least one assay; those are over-represented in the sample as a whole. Calls of active or inactive are those of the source. No stated cut-off is given here; in the data, active means growth inhibition above about 70%; inactive means the rest.
Write down the outcome that applies. Available outcomes: y (active), n (inactive)

What is the recorded call for this compound in the test? `O=C1OCc2cccc3cccc1c23`
n

What is the recorded call for this compound in the test? `O=C(NNS(=O)(=O)c1ccccc1)Nc1ccccc1`
n

What is the recorded call for this compound in the test? `CC(C)(CCBr)[N+](=O)[O-]`
n

What is the recorded call for this compound in the test? `N#Cc1c(SCc2ccc(Cl)cc2)nsc1Nc1ccc(Cl)cc1`
y

Next item in the queue.
What is the recorded call for this compound in the test? `O=C(O)Cc1nc2ccccc2[nH]1`
n
